Items are presented alongside their recorded IC50.
- Tgt: 5-HT2B (Homo sapiens)
- Sequence (P41595 whole entry): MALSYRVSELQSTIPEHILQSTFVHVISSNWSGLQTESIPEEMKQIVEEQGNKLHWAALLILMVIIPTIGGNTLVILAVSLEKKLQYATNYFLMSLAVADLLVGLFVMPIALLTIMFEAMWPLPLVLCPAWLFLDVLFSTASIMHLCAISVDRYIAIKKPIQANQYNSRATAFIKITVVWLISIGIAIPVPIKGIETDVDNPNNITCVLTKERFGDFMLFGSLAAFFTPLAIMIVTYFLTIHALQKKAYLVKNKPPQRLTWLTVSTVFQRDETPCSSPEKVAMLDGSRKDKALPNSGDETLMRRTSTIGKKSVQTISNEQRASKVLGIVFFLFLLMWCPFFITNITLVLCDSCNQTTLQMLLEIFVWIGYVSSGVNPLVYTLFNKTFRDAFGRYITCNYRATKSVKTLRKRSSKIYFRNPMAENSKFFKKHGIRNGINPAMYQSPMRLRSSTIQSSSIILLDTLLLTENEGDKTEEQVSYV
- Test method notes: cell-based
- Format: cell-based
- Design: expressed in transfected cells; host or cells: HEK293T
- Test parameters: HEK293T cells, 1 hour at 37° C.; read-out: IC50 nM 5-HT2 Gq Dissociation BRET assay, 5-HT2B
Counter-ions that a name gives are not always drawn.
State just the number; it will be interpreted in nM.

Compound | Readout name | Assay value
CCN(CC)CCc1cn(C)c2cccc(O)c12 [Example 18, hydrochloride] | IC50 | 64

input: GET /values?readout=IC50&item= COc1ccccc1CNCCc1cn(C)c2cccc(O)c12 [Example 24, hydrochloride]
output: 8.3

input: GET /values?readout=IC50&item= CCN(C)CCc1cn(C)c2cccc(O)c12 [Example 12, hydrochloride]
output: 83

input: GET /values?readout=IC50&item= CN(CCc1cn(C)c2cccc(O)c12)CC1CC1 [Example 16, hydrochloride]
output: 0.245

input: GET /values?readout=IC50&item= Cn1cc(CCNCC2CC2)c2c(O)cccc21 [Example 21, hydrochloride]
output: 328
